- ASSAY INFO: plasmodial surface anion channel blockers, osmotic lysis – cell-based, P. falciparum Indochina, OD700, 1 h, primary screen (AID 1154)
- CONDITION INFO: P. falciparum Indochina infected RBC osmotic lysis, called active from +8 up or from −8 down
Activity calls are given as the source filed them.
Possible outcomes: YES = active, NO = inactive

COMPOUND: [N-]=[N+]=NCc1ccccc1[C@H]1OC(c2ccc(OCCCO)cc2)=N[C@@]1(Cc1ccccc1)C(=O)NCC(O)CO (stereo partly drawn)
LABEL: YES
--
COMPOUND: [N-]=[N+]=Nc1ccccc1[C@@H]1OC(c2ccc(OCCCO)cc2)=N[C@]1(CCS(=O)(=O)c1ccccc1)C(=O)O
LABEL: YES
--
COMPOUND: Cc1ccc(S(=O)(=O)N2CC(C(=O)O)=CCC2c2ccccc2)cc1 (stereo not drawn)
LABEL: NO
--
COMPOUND: O=C1O[C@H](c2ccccc2)[C@H](c2ccccc2)N2[C@H]1[C@@H](C(=O)NC[C@H](O)c1ccccc1)[C@]1(C(=O)Nc3ccc(C#CC4(O)CCCCCC4)cc31)[C@H]2c1ccccc1OCCO
LABEL: NO
--
COMPOUND: CCOC(=O)N1C(c2ccc(OCCCO)cc2)=NC(C(=O)OC)N1C(=O)OCC (stereo not drawn)
LABEL: YES
--
COMPOUND: CN(C)CCCC[C@@H]1NC(=O)[C@@H]2C[C@H](C(=O)NCc3ccc(F)cc3)[C@H](c3cccc(OCCO)c3)N2C1=O
LABEL: NO
--
COMPOUND: O=[N+]([O-])c1ccc(C[n+]2ccc(CCCO)cc2)o1
LABEL: NO
--
COMPOUND: C=CCNC(=O)[C@H]1[C@@H]2C(=O)O[C@@H](c3ccccc3)[C@@H](c3ccccc3)N2[C@@H](c2ccc(O)cc2)[C@]12C(=O)Nc1ccc(C#Cc3ccc(OC)cc3)cc12
LABEL: NO
